molecular target: LIM domain kinase 1 (Homo sapiens); conditions: at 10 µM
Would you kindly list residual activity for each of these compounds?
Express it in %; write the number only.

Given item COC(=O)[C@@]1(O)C[C@H]2O[C@]1(C)n1c3ccccc3c3c4c(c5c6ccccc6n2c5c31)C(=O)NC4 , the value recorded as its residual activity is 3

Given item CCn1cnc2c(Nc3cccc(Cl)c3)nc(N[C@@H]3CCCC[C@@H]3N)nc21 , the value recorded as its residual activity is 63

Given item c1cc(-c2cnn3cc(-c4ccc(OCCN5CCCCC5)cc4)cnc23)ccn1 , the value recorded as its residual activity is 27

Given item O=[N+]([O-])/C=C/c1ccc2c(c1)OCO2 , the value recorded as its residual activity is 97

Given item CC(C)[C@H](CO)Nc1nc(Nc2cccc(Cl)c2)c2ncn(C(C)C)c2n1 , the value recorded as its residual activity is 90

Given item COc1cc(OC)c(/C=C2\C(=O)Nc3ccccc32)c(OC)c1 , the value recorded as its residual activity is 83

###

molecular target: Serine/threonine-protein kinase 4 (Homo sapiens); details: at 1 µM
Would you kindly list residual activity for each of these molecules?
# do not omit the unit; it follows the number

Given item O=C1c2ccccc2-c2nc3nnnn3nc21 , the value recorded as its residual activity is 108%

Given item O=[N+]([O-])/C=C/c1ccc2c(c1)OCO2 , the value recorded as its residual activity is 101%

Given item CC(C)(C)c1cc(C=C(C#N)C#N)cc(Br)c1O , the value recorded as its residual activity is 104%

Given item COc1cc2ncnc(Nc3ccc(OCc4ccccc4)cc3)c2cc1OC , the value recorded as its residual activity is 95%

Given item COc1cc(OC)c(/C=C2\C(=O)Nc3ccccc32)c(OC)c1 , the value recorded as its residual activity is 108%

Given item O=C1NC(=O)c2c1c1c3ccccc3n3c1c1c2c2ccccc2n1C1CCC3O1 , the value recorded as its residual activity is 19%

Given item CCn1cnc2c(Nc3cccc(Cl)c3)nc(N[C@@H]3CCCC[C@@H]3N)nc21 , the value recorded as its residual activity is 64%

Given item O=c1[nH]c2ccccc2n1C1CCN(Cc2ccc(-c3nc4cc5[nH]cnc5cc4nc3-c3ccccc3)cc2)CC1 , the value recorded as its residual activity is 102%

Given item COc1ccc2c(c[n+](C)c3c4cc5c(cc4ccc23)OCO5)c1OC , the value recorded as its residual activity is 92%

###

biological target: Casein kinase II (Homo sapiens) (UniProt P67870+P68400+P19784); conditions: at 1 µM;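 also: residual kinase activity expressed relative to control, in HEPES buffer at pH 7.6 with NaCl, EDTA, DTT and Triton X-100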
Sequence (P19784 whole entry, looked up): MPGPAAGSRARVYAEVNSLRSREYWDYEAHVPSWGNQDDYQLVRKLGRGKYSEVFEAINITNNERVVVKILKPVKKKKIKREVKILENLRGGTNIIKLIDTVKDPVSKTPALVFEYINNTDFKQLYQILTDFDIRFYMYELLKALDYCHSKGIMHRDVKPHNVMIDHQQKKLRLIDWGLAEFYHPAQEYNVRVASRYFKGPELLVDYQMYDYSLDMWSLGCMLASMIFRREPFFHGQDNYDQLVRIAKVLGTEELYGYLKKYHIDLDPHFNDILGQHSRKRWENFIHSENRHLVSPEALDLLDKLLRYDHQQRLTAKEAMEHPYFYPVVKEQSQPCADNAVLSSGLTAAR
Sequence (P67870 whole entry, looked up): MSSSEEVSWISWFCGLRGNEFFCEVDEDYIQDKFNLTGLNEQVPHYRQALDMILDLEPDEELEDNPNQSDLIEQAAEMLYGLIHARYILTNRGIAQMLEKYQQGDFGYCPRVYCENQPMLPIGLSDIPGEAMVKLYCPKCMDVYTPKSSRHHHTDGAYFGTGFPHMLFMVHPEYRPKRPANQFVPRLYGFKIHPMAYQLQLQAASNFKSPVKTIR
Sequence (P68400 whole entry, looked up): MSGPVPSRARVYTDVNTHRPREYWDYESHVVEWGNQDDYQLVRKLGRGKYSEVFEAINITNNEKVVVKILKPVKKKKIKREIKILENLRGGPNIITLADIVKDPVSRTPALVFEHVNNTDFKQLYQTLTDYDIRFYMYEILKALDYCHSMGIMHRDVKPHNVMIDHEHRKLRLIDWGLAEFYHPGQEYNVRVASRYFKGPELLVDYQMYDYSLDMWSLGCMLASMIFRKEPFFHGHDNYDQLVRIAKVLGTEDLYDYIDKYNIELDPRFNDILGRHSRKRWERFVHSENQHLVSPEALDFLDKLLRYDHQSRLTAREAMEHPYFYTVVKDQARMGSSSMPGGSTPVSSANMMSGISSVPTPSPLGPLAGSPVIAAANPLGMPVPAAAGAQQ
Description: Millipore: Percentage of residual kinase activity of CSNK2A1 at 1uM relative to control. Control inhibitor: Jnk Inhibitor II at 100.0uM. Buffer: 20 mM HEPES pH 7.6, 0.15 M NaCl, 0.1 mM EDTA, 5 mM DTT, 0.1% Triton X-100
Would you kindly list residual activity for each of these compounds?
Express it in %; write the number only.

Given item O=C1Nc2ccc3ncsc3c2/C1=C/c1c[nH]cn1 , the value recorded as its residual activity is 30

Given item COc1cc(OC)c(/C=C2\C(=O)Nc3ccccc32)c(OC)c1 , the value recorded as its residual activity is 88

Given item C[S+]([O-])c1ccc(-c2nc(-c3ccc(F)cc3)c(-c3ccncc3)[nH]2)cc1 (stereo not given) , the value recorded as its residual activity is 100

Given item N/C(=N\[N+](=O)[O-])N/N=C\c1ccc(-c2cccc([N+](=O)[O-])c2)o1 , the value recorded as its residual activity is 97

Given item COC(=O)[C@@]1(O)C[C@H]2O[C@]1(C)n1c3ccccc3c3c4c(c5c6ccccc6n2c5c31)C(=O)NC4 , the value recorded as its residual activity is 93

Given item c1cc(-c2cnn3cc(-c4ccc(OCCN5CCCCC5)cc4)cnc23)ccn1 , the value recorded as its residual activity is 82

Given item CC(C)(C)c1cc(C=C(C#N)C#N)cc(Br)c1O , the value recorded as its residual activity is 113

Given item O=[N+]([O-])/C=C/c1ccc2c(c1)OCO2 , the value recorded as its residual activity is 105

Given item CC(C)[C@H](CO)Nc1nc(Nc2cccc(Cl)c2)c2ncn(C(C)C)c2n1 , the value recorded as its residual activity is 99

Given item CN[C@@H]1C[C@H]2O[C@@](C)([C@@H]1OC)n1c3ccccc3c3c4c(c5c6ccccc6n2c5c31)C(=O)NC4 , the value recorded as its residual activity is 81

###

biological target: Mitogen-activated protein kinase kinase kinase 9 (Homo sapiens); details: at 1 µM
// classify: if (residual activity < 80%) class 1 else class 0

Input: Quick check: residual activity of O=C1NC(=O)c2c1c1c3ccccc3n3c1c1c2c2ccccc2n1C1CCC3O1 under 80%?
Output: class 1

Input: Quick check: residual activity of O=C1Nc2ccc3ncsc3c2/C1=C/c1c[nH]cn1 under 80%?
Output: class 1

Input: Quick check: residual activity of CC(C)[C@H](CO)Nc1nc(Nc2cccc(Cl)c2)c2ncn(C(C)C)c2n1 under 80%?
Output: class 1

Input: Quick check: residual activity of COc1cc(OC)c(/C=C2\C(=O)Nc3ccccc32)c(OC)c1 under 80%?
Output: class 0

Input: Quick check: residual activity of O=C1c2ccccc2-c2nc3nnnn3nc21 under 80%?
Output: class 0

Input: Quick check: residual activity of O=c1[nH]c2ccccc2n1C1CCN(Cc2ccc(-c3nc4cc5[nH]cnc5cc4nc3-c3ccccc3)cc2)CC1 under 80%?
Output: class 0

Input: Quick check: residual activity of COC(=O)[C@@]1(O)C[C@H]2O[C@]1(C)n1c3ccccc3c3c4c(c5c6ccccc6n2c5c31)C(=O)NC4 under 80%?
Output: class 1

Input: Quick check: residual activity of CC(C)(C)c1cc(C=C(C#N)C#N)cc(Br)c1O under 80%?
Output: class 0

###

target: Serine/threonine-protein kinase PLK2 (Homo sapiens) (UniProt Q9NYY3); details: at 1 µM;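 also: residual PLK2 kinase activity expressed as percent of uninhibited control, measured in MOPS buffer at pH 7.0 with EDTA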
Sequence (Q9NYY3 whole entry, looked up): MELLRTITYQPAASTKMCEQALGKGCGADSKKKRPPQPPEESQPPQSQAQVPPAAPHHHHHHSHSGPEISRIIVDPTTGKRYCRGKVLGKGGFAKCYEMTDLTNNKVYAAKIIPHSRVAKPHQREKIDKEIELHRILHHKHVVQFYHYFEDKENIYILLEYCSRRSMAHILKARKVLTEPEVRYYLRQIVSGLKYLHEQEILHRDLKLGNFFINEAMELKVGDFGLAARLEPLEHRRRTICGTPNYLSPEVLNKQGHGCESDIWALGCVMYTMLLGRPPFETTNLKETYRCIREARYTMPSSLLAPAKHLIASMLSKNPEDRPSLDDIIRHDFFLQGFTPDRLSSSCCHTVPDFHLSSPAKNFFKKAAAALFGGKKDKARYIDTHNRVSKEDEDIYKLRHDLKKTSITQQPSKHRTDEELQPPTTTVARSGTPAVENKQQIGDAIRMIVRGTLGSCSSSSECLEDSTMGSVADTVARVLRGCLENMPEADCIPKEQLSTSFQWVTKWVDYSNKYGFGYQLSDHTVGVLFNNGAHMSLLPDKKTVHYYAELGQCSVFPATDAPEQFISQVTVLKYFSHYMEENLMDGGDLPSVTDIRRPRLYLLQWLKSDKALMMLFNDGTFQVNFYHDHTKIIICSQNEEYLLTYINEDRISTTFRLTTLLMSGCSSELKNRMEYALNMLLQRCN
Description: Millipore: Percentage of residual kinase activity of PLK2 at 1uM relative to control. Control inhibitor: Phosphoric acid* at 0.3uM. Buffer: 8 mM MOPS pH 7.0, 0.2 mM EDTA
property label: residual activity (%)
Express it in %; write the number only.

Case O=C1c2ccccc2-c2nc3nnnn3nc21 , Serine/threonine-protein kinase PLK2 (Homo sapiens) (UniProt Q9NYY3), residual activity recorded as 73

Case O=C1Nc2ccc3ncsc3c2/C1=C/c1c[nH]cn1 , Serine/threonine-protein kinase PLK2 (Homo sapiens) (UniProt Q9NYY3), residual activity recorded as 49

Case C[S+]([O-])c1ccc(-c2nc(-c3ccc(F)cc3)c(-c3ccncc3)[nH]2)cc1 (stereo not drawn) , Serine/threonine-protein kinase PLK2 (Homo sapiens) (UniProt Q9NYY3), residual activity recorded as 116

Case CC(C)[C@H](CO)Nc1nc(Nc2cccc(Cl)c2)c2ncn(C(C)C)c2n1 , Serine/threonine-protein kinase PLK2 (Homo sapiens) (UniProt Q9NYY3), residual activity recorded as 101

Case c1cc(-c2cnn3cc(-c4ccc(OCCN5CCCCC5)cc4)cnc23)ccn1 , Serine/threonine-protein kinase PLK2 (Homo sapiens) (UniProt Q9NYY3), residual activity recorded as 82

Case N/C(=N\[N+](=O)[O-])N/N=C\c1ccc(-c2cccc([N+](=O)[O-])c2)o1 , Serine/threonine-protein kinase PLK2 (Homo sapiens) (UniProt Q9NYY3), residual activity recorded as 99

Case O=[N+]([O-])/C=C/c1ccc2c(c1)OCO2 , Serine/threonine-protein kinase PLK2 (Homo sapiens) (UniProt Q9NYY3), residual activity recorded as 102

Case O=c1[nH]c2ccccc2n1C1CCN(Cc2ccc(-c3nc4cc5[nH]cnc5cc4nc3-c3ccccc3)cc2)CC1 , Serine/threonine-protein kinase PLK2 (Homo sapiens) (UniProt Q9NYY3), residual activity recorded as 91

###

target: Rhodopsin kinase GRK7 (Homo sapiens) (UniProt Q8WTQ7); settings: at 1 µM
Sequence (Q8WTQ7 whole entry): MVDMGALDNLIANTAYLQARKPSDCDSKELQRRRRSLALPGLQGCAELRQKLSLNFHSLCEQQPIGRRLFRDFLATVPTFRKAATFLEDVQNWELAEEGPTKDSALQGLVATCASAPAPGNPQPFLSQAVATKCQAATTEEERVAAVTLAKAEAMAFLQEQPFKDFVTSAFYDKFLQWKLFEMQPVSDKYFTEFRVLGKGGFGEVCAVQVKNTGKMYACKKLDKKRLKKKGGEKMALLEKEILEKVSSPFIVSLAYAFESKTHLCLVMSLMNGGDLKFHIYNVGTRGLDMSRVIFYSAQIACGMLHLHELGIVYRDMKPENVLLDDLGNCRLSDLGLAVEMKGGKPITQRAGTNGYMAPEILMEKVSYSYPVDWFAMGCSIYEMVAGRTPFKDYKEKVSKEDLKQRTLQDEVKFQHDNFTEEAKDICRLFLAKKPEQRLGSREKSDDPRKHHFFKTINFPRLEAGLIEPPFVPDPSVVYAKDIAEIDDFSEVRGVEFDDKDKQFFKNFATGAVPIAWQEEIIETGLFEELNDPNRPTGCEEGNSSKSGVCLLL
Would you kindly list residual activity for each of these compounds?
Express it in %; write the number only.

Given item CC(C)[C@H](CO)Nc1nc(Nc2cccc(Cl)c2)c2ncn(C(C)C)c2n1 , the value recorded as its residual activity is 95

Given item COc1cc(OC)c(/C=C2\C(=O)Nc3ccccc32)c(OC)c1 , the value recorded as its residual activity is 95

Given item COC(=O)[C@@]1(O)C[C@H]2O[C@]1(C)n1c3ccccc3c3c4c(c5c6ccccc6n2c5c31)C(=O)NC4 , the value recorded as its residual activity is 4

Given item COc1ccc2c(c[n+](C)c3c4cc5c(cc4ccc23)OCO5)c1OC , the value recorded as its residual activity is 99

###

molecular target: Tyrosine-protein kinase Fyn (Homo sapiens); conditions: at 1 µM
Would you kindly list residual activity for each of these molecules?
Express it in %; write the number only.

Given item COC(=O)[C@@]1(O)C[C@H]2O[C@]1(C)n1c3ccccc3c3c4c(c5c6ccccc6n2c5c31)C(=O)NC4 , the value recorded as its residual activity is 4

Given item COc1cc(OC)c(/C=C2\C(=O)Nc3ccccc32)c(OC)c1 , the value recorded as its residual activity is 70

Given item COc1ccc2c(c[n+](C)c3c4cc5c(cc4ccc23)OCO5)c1OC , the value recorded as its residual activity is 92

Given item COc1cc2ncnc(Nc3ccc(OCc4ccccc4)cc3)c2cc1OC , the value recorded as its residual activity is 79

Given item O=C1NC(=O)c2c1c1c3ccccc3n3c1c1c2c2ccccc2n1C1CCC3O1 , the value recorded as its residual activity is 81

Given item COc1ccc2c(c1)/C(=C/c1cnc[nH]1)C(=O)N2 , the value recorded as its residual activity is 67

Given item C[S+]([O-])c1ccc(-c2nc(-c3ccc(F)cc3)c(-c3ccncc3)[nH]2)cc1 (centres undefined) , the value recorded as its residual activity is 76

Given item O=c1[nH]c2ccccc2n1C1CCN(Cc2ccc(-c3nc4cc5[nH]cnc5cc4nc3-c3ccccc3)cc2)CC1 , the value recorded as its residual activity is 95

Given item c1cc(-c2cnn3cc(-c4ccc(OCCN5CCCCC5)cc4)cnc23)ccn1 , the value recorded as its residual activity is 11
